# TEST_TARGET: T1, human PCSK9 (self-cleaved, mature, secreted PCSK9 comprising amino acids 31 to 692 of SEQ ID NO: 2) (human, UniProt Q8NBP7 31-692, biotinylated in the ELISAs)
# T1 construct: Limits 31-692 are stated for the immunogen; the assays only say human PCSK9; also called huPCSK9; rhu PCSK9
# ASSAY_COMMENT: SPR pH 7.4;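 note: antibodies captured as ligand on the sensor surface, five analyte concentrations injected with buffer blanks, double-referenced data fit to a 1:1 binding model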
VALUE_KIND: kon (M⁻¹ s⁻¹)
Report the figure in M⁻¹ s⁻¹ without appending any unit label.

q: Give the measured kon of SS-15065 (antibody, V domains shown, 31H4 His variant: LC 39(32), HC 132(106), parental(113H)) VH: EVQLVESGGGLVKPGGSLRLSCAASGFTFSSYSMNWVRQAPGKGLEWVSSISSSSSYISYADSVKGRFTISRDNAKNSLYLQMNSLRAEDTAVYFCARDYDFHSAHYDAFDVWGQGTMVTVSS VL: ESVLTQPPSVSGAPGQRVTISCTGSSSNIGAGHDVHWYQQLPGTAPKLLISGNSNRPSGVPDRFSGSKSGTSASLAITGLQAEDEADYYCQSYDSSLSGSVFGGGTKLTVLG .
a: 1.23e+06

q: Cool, now SS-15136 (antibody, V domains shown, 31H4 His variant: HC 70(60), 132(106), parental(113H)) VH: EVQLVESGGGLVKPGGSLRLSCAASGFTFSSYSMNWVRQAPGKGLEWVSSISSSSSYISHADSVKGRFTISRDNAKNSLYLQMNSLRAEDTAVYFCARDYDFHSAHYDAFDVWGQGTMVTVSS VL: ESVLTQPPSVSGAPGQRVTISCTGSSSNIGAGYDVHWYQQLPGTAPKLLISGNSNRPSGVPDRFSGSKSGTSASLAITGLQAEDEADYYCQSYDSSLSGSVFGGGTKLTVLG
a: 1.23e+06

q: Cool, now SS-15141 (antibody, V domains shown, 31H4 His variant: HC 73(63), 132(106), parental(113H)) VH: EVQLVESGGGLVKPGGSLRLSCAASGFTFSSYSMNWVRQAPGKGLEWVSSISSSSSYISYADHVKGRFTISRDNAKNSLYLQMNSLRAEDTAVYFCARDYDFHSAHYDAFDVWGQGTMVTVSS VL: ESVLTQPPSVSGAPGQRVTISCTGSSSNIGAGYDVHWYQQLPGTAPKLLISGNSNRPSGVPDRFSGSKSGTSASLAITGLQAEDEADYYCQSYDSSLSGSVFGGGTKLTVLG
a: 1.38e+06

Data provenance is patent US20160032014A1.
